Test system: CASKI
Test: Primary qHTS to identify gynecologic anti-cancer compounds using libraries of approved drugs and bioactive compounds (AID 1345084); further: nearly all actives have a fitted effect of over 55% in size
Settings: Gynecologic cancer cell panel viability, ATPlite luminescence, 48 h; series mostly up to 57.5 µM
Excerpt: National Center for Advancing Translational Sciences [NCATS] Assay Overview: Chemotherapeutic drug responses vary from cancer to cancer and from patient to patient. […] ATPlite is a luminescence based assay reliant on the conversion of a luciferase substrate to light in the presence of ATP. As a cytotoxic compound will suppress growth and decrease the number of cells, the concentration of ATP will decrease, and less light signal will be detected in the well. […]
Records with an inconclusive call do not appear. Activity calls are given as the source filed them. The call rests on the fitted dose curve; in most records, active means well fitted cell-killing curve with a large enough effect; inconclusive means small, poorly fitted or top-dose-only effect, or effect the other way; inactive means flat fitted curve, though single readings scatter.
Entry note: the call must match one of active, inactive

Record lookup: outcome of this test for Cc1cc2nc3ccc(=[N+](C)C)cc-3sc2cc1N ? active

What did this assay record as the result for CC(=O)Nc1ccc(S(=O)(=O)Nc2cc(C)on2)cc1 ? inactive

Give the logged outcome of this assay for the following compound: Nc1ccc(C(=O)N2CC3CC(CN(Cc4ccccc4)C3)C2)cc1 inactive

State the result this test recorded for Cc1onc(-c2ccccc2)c1C(=O)Cl . inactive

Just curious, what result did c1ccc2c(c1)CCc1ccccc1N2 get here? inactive

Entry CCn1ccc(NS(=O)(=O)c2ccc(N)cc2)nc1=O : call = ? inactive

Field: outcome | Entry: CN1C(=O)c2ccccc2C1=O inactive

Please let me know the test result on file for COc1ccc2nc(SCc3ncc(C)c(OC)c3C)[nH]c2c1 . inactive

Please indicate how the test categorized CC(C)=CCC/C(C)=C/CC/C(C)=C/CCC(=O)OC/C=C(\C)CCC=C(C)C . inactive

Entry Cc1ccc(C(=O)C(=O)O)cc1C : call = ? inactive

Fill in: this test's call for CCC(=O)O[C@]1(C(=O)COC)[C@@H](C)C[C@H]2[C@@H]3CCC4=CC(=O)C=C[C@]4(C)C3(F)[C@@H](O)C[C@@]21C (some centres not stated) is ___ inactive

Fill in: this test's call for CCCN(CCC)C(=O)C(CCC(=O)OCCCN1CCN(CCOC(=O)Cc2c(C)n(C(=O)c3ccc(Cl)cc3)c3ccc(OC)cc23)CC1)NC(=O)c1ccccc1 (configuration not stated) is ___ inactive
